target: human serum albumin (HSA) (Homo sapiens); assay: Differential scanning fluorimetry; settings: PFAS; 0.125 mM HSA; maximal melting temperature shift
ΔTm strictly less than 10 °C = 1.0. Otherwise 0.0.

Compound | Measurement target | Class assignment
O=C(O)CCC(F)(F)C(F)(F)C(F)(F)C(F)(F)C(F)(F)C(F)(F)F [6:3 FTCA, 2,H,2H,3H,3H-perfluorononanoic acid] | human serum albumin (HSA) (Homo sapiens) | 1.0
O=S(=O)(O)C(F)(F)C(F)(F)C(F)(F)C(F)(F)C(F)(F)C(F)(F)C(F)(F)C(F)(F)F [PFOS, perfluorooctanesulfonic acid] | human serum albumin (HSA) (Homo sapiens) | 0.0
O=C(O)C(F)(F)C(F)(F)C(F)(F)C(F)(F)C(F)(F)C(F)(F)C(F)(F)C(F)(F)F [PFNA, perfluorononanoic acid] | human serum albumin (HSA) (Homo sapiens) | 0.0
O=C(O)C(F)(F)C(F)(F)C(F)(F)C(F)(F)F [PFPeA, perfluoropentanoic acid] | human serum albumin (HSA) (Homo sapiens) | 0.0
O=C(O)C(F)(F)C(F)(F)C(F)(F)C(F)(F)C(F)(F)C(F)(F)C(F)(F)C(F)(F)C(F)(F)C(F)(F)F [PFunDA, Perfluoroundecanoic acid] | human serum albumin (HSA) (Homo sapiens) | 1.0
O=C(O)C(F)(OC(F)(F)C(F)(F)C(F)(F)F)C(F)(F)F (stereo not shown) [HFPO-DA, hexafluoropropylene oxide dimer acid] | human serum albumin (HSA) (Homo sapiens) | 0.0

Please turn your attention to the following entry.
I wonder whether O=S(=O)(O)C(F)(F)C(F)(F)OC(F)(C(F)(F)F)C(F)(F)OC(F)C(F)(F)F (stereo not shown) [Nafion bp2] has ΔTm below 10 °C. Can you tell?
0.0

====

pKd values, listed per item
biological target: human serum albumin (HSA) (Homo sapiens, UniProt P02768); assay: Differential scanning fluorimetry; conditions: PFAS; 0.125 mM HSA; single-site ligand binding model; mean ± SD
Sequence (P02768 25-609): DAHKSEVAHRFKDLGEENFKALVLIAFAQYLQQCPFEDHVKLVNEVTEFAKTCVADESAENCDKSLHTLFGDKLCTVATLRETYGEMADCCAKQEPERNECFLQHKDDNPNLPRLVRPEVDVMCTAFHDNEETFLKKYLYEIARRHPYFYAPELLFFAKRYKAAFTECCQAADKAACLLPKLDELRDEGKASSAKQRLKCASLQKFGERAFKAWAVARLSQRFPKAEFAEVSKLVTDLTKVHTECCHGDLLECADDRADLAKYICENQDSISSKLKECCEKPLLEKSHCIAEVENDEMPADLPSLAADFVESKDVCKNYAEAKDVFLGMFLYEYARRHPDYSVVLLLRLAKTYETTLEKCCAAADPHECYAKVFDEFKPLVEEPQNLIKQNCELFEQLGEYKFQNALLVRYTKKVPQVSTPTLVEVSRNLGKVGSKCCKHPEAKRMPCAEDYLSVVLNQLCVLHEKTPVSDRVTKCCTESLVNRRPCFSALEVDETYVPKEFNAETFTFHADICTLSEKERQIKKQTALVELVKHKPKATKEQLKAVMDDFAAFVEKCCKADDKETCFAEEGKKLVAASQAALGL
Hey, just a heads up that pKd is the negative log base 10 of the concentration in molar.

Compound | Measurement target | pKd
O=C(O)C(F)(F)C(F)(F)C(F)(F)F [PFBA, perfluorobutanoic acid] | human serum albumin (HSA) (Homo sapiens, UniProt P02768) | 2.59
O=C(O)CCC(F)(F)C(F)(F)C(F)(F)F [3:3 FTCA, 2H,2H,3H,3H-perfluorohexanoic acid] | human serum albumin (HSA) (Homo sapiens, UniProt P02768) | 2.77
O=C(O)C(F)(F)C(F)(F)C(F)(F)C(F)(F)C(F)(F)F [PFHxA, Perfluorohexanoic acid] | human serum albumin (HSA) (Homo sapiens, UniProt P02768) | 2.79

Moving on to another compound below.
Requested field: pKd. Item: O=S(=O)(O)C(F)(F)C(F)(F)OC(F)(C(F)(F)F)C(F)(F)OC(F)C(F)(F)F (stereo not shown) [Nafion bp2]
2.82

====

pEC50 values, listed per item
target: human serum albumin (HSA) (Homo sapiens); test: Differential scanning fluorimetry; settings: PFAS; 0.125 mM HSA; 4-parameter variable slope model; mean ± SD
Hey, just a heads up that pEC50 is the negative log base 10 of the concentration in molar.

Below, 3 molecules whose answers are already recorded.
Molecule | Measurement target | pEC50
O=C(O)CCC(F)(F)C(F)(F)C(F)(F)F [3:3 FTCA, 2H,2H,3H,3H-perfluorohexanoic acid] | human serum albumin (HSA) (Homo sapiens) | 2.69
O=S(=O)(O)C(F)(F)C(F)(F)C(F)(F)C(F)(F)F [PFBS, perfluorobutanesulfonic acid] | human serum albumin (HSA) (Homo sapiens) | 2.76
O=C(O)C(F)(F)C(F)(F)C(F)(F)C(F)(F)F [PFPeA, perfluoropentanoic acid] | human serum albumin (HSA) (Homo sapiens) | 2.67

Requested field: pEC50. Item: O=C(O)C(F)(F)C(F)(F)C(F)(F)C(F)(F)C(F)(F)F [PFHxA, Perfluorohexanoic acid]
2.85
